Biological target: HEK-293 cells expressing a G810S mutant RET Kif5b-RET fusion protein (Homo sapiens, UniProt P07949, G810S)
Construct: KIF5B (N-terminal portion incl. coiled-coil)
Sequence (P07949 713-1063 G810S limits assumed): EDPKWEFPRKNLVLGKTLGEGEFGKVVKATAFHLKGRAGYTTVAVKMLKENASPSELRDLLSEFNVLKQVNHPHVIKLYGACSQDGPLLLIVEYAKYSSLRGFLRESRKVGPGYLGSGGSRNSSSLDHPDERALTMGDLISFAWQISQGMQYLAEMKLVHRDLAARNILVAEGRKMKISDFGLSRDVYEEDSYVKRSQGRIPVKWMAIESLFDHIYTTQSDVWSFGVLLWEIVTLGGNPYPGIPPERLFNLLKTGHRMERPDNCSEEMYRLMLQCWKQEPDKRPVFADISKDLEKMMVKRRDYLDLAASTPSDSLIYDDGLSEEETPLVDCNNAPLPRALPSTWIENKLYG
Assay: RET G810S Mutant Cell Assay (phospho-RET Tyr1062)
Details: HEK-293 Kif5b-RET G810S, 1 hour incubation, phospho-RET normalized to GAPDH
Measured IC50 values are reported for all entries that follow.
OBSERVABLE: IC50 (nM)

>>> assay_result("Nc1ncnc2c1c1c(n2C(CF)CF)CCC(O)c2c-1noc2C1CC1 (stereo not shown)")
77
>>> assay_result("CNC(=O)c1ccc2cc3n(c2c1)C(=O)NCc1c-3c2c(N)ncnc2n1C(C)C")
16700
>>> assay_result("CC(=O)Nc1ccc2cc3n(c2c1)CCCc1c-3c2c(N)ncnc2n1C(C)C")
36
>>> assay_result("CC(C)n1c2c(c3c(N)ncnc31)-c1noc(C3CC3)c1S(=O)(=O)NC2 [Example 21, 2,2,2-trifluoroacetate]")
83
